Record form. Attribute: IC50. Fill in for each entry.
target: ligand binding domain of human RORγ (A262-S507) (Homo sapiens, UniProt P51449); construct: made in house; host or cells: E. coli; assay: General RORγ SPA binding assay (competition with [3H]25-hydroxycholesterol); details: IC50, RORγ SPA binding assay, inhibition of [3H]25-hydroxycholesterol binding
Sequence (P51449 262-507): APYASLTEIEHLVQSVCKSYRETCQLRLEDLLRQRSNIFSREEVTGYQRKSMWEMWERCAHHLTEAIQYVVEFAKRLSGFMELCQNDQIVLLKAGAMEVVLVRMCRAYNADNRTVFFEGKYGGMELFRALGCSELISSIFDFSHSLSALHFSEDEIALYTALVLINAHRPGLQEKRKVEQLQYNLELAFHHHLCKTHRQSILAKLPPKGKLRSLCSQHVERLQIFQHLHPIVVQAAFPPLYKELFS
Give bare numbers, in nM.

Before answering, review these 6 worked examples.
                                   compound  value_unit  result
0  Nc1ncc(C(=O)COc2ccnc(C(F)(F)F)n2)c(C2CCN(C(=O)Oc3c(F)cccc3F)CC2)n1          nM    19.1
1  CC(O)(COc1cccc(C(F)(F)F)n1)c1cnc(N)nc1C1CCN(C(=O)Oc2c(F)cccc2F)CC1 (stereo not shown)          nM    30.3
2  CC(O)(COc1ccnc(C(F)(F)F)n1)c1cnc(N)nc1C1CCN(C(=O)Oc2ccccc2F)CC1 (stereo not shown)          nM     7.2
3  CC(O)(COc1ccnc(C(F)(F)F)n1)c1cnc(N)nc1C1CCN(C(=O)Oc2c(F)cccc2F)CC1 (stereo not shown)          nM     6.3
4  Cc1nc(C)c(C(=O)NCc2ccnc(C(F)(F)F)n2)c(C2CCN(C(=O)Oc3c(F)cccc3F)CC2)n1          nM     5.4
5  Cc1nc(C)c(C(=O)NCc2ccnc(C(F)(F)F)n2)c(C2CCN(C(=O)Oc3ccccc3F)CC2)n1          nM    11.4

Incoming: Write down measured IC50 (ligand binding domain of human RORγ (A262-S507) (Homo sapiens, UniProt P51449)) for this compound. CC(O)(COc1ccnc(C(F)(F)F)n1)c1cnc(N)nc1C1CCN(C(=O)Oc2ccc(F)cc2)CC1 (stereo not shown)
Outgoing: 15
